System: Escherichia coli TOP10;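 further: peptides expressed intracellularly from a pBAD plasmid library in pooled LB shake-flask culture, induced with 0.3% L-arabinose, DNA abundance read by NGS, three biological replicates, DESeq2 with apeglm shrinkage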
assay_remarks: shrunken log2 fold change of peptide-encoding DNA abundance (4.5 h post-induction vs induction); higher = less antimicrobial activity (less host growth inhibition)
setup_conditions: time post-induction: 4.5 h; library: site-saturation at positions 5, 18, 19, 20
Please mark MET if the recorded shrunken log2 fold change is equal to or greater than 0.09, and NOT MET if it falls below.

RRIRFRPPRLPRPRPRPEGHPRP
MET

Prompt: Does shrunken log2 fold change meet or surpass 0.09 for RRIRPRPPRLPRPRPRPWPYPRP ?
Completion: MET

Prompt: Can RRIRHRPPRLPRPRPRPKANPRP be said to have shrunken log2 fold change at or above 0.09?
Completion: MET

Prompt: Record RRIRFRPPRLPRPRPRPWSIPRP ; criterion: shrunken log2 fold change no lower than 0.09. Met?
Completion: NOT MET

Prompt: Evaluate RRIRWRPPRLPRPRPRPNHTPRP : shrunken log2 fold change at minimum 0.09?
Completion: NOT MET

Prompt: Reported shrunken log2 fold change reaches at least 0.09 for RRIRKRPPRLPRPRPRPSNQPRP ?
Completion: NOT MET

Prompt: Quick check, shrunken log2 fold change >= 0.09? RRIRQRPPRLPRPRPRPGCFPRP
Completion: NOT MET

Prompt: # bool: shrunken log2 fold change of RRIRARPPRLPRPRPRPQDQPRP >= 0.09
Completion: MET
